Molecular target: Cytochrome P450 3A4 (Homo sapiens, UniProt P08684)
Sequence (P08684 whole entry): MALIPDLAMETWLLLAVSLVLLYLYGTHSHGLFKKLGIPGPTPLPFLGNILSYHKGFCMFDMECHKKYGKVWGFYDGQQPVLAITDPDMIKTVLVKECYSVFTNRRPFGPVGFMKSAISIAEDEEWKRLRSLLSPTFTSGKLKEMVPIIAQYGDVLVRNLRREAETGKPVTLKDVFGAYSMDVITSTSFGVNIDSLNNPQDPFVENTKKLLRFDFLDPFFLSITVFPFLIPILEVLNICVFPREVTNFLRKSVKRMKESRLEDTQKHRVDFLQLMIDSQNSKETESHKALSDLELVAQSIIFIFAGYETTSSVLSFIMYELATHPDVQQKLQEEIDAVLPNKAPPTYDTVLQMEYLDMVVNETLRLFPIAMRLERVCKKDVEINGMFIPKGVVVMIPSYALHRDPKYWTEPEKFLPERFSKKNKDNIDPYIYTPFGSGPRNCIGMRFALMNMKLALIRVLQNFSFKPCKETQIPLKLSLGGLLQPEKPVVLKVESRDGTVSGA
Endpoint: IC50

Write down the reported IC50 of COc1ccc(NC(=O)N2CCNC[C@@H]2COc2cccnc2)cc1.Cl , test system: Cytochrome P450 3A4 (Homo sapiens, UniProt P08684).
> 100 µM

###

Target: Cytochrome P450 1A2 (Homo sapiens)
Endpoint: IC50

Write down the reported IC50 of COc1ccc(NC(=O)N2CCNC[C@@H]2COc2cccnc2)cc1.Cl , test system: Cytochrome P450 1A2 (Homo sapiens).
> 100 µM

###

Biological target: Cytochrome P450 2C19 (Homo sapiens)
Sequence (P33261 whole entry): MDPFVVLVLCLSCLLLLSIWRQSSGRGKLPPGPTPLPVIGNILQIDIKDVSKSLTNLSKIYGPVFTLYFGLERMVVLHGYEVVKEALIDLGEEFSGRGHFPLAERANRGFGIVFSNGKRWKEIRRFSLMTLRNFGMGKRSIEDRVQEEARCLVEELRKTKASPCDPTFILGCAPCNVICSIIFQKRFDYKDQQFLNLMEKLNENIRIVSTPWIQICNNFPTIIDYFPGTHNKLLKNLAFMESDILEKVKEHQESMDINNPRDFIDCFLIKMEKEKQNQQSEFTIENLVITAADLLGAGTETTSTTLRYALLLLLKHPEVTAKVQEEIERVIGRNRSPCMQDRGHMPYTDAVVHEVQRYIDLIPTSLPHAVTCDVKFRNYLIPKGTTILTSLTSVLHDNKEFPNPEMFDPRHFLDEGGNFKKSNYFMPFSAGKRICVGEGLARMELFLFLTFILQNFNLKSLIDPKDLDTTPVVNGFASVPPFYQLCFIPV
Endpoint: IC50

Write down the reported IC50 of COc1ccc(NC(=O)N2CCNC[C@@H]2COc2cccnc2)cc1.Cl , test system: Cytochrome P450 2C19 (Homo sapiens).
> 100 µM

###

Target: Acetylcholine receptor; alpha1/beta1/delta/gamma (Homo sapiens) (UniProt P02708+P07510+P11230+Q07001)
Assay: Inhibition of alpha1beta1gammadelta nAChR (unknown origin) at 10 uM
Assay type: protein-complex assay
Endpoint: inhibition (%)
Numeric only. Scale: %

As a guide, the following entries are already answered.
COc1ccc(OC(=O)N2CCNCC2COc2cccnc2)cc1 (racemic) : 2
c1cncc(OCC2CNCCN2c2nc3ccccc3o2)c1 (racemic) : -2
O=C(Nc1ccc(Br)cc1F)N1CCNCC1COc1cccnc1 (racemic) : 7
COc1ccc(NC(=O)N2CCNCC2COc2cccnc2)cc1 (racemic) : -8
Brc1ccc2oc(N3CCNC[C@@H]3COc3cccnc3)nc2c1 : -3

Field request: inhibition | item: COc1ccc(NC(=O)N2CCNC[C@H]2COc2cccnc2)cc1
2

Field request: inhibition | item: Fc1cc(F)c2nc(N3CCNCC3COc3cccnc3)sc2c1 (racemic)
12

Field request: inhibition | item: Fc1cccc2sc(N3CCNCC3COc3cccnc3)nc12 (racemic)
20

Field request: inhibition | item: COc1ccc(NC(=O)N2CCNCC2COc2cccnc2)cc1Cl (racemic)
17

Field request: inhibition | item: Cc1cc(NC(=O)N2CCNCC2COc2cccnc2)ccc1Br (racemic)
23

###

Molecular target: CYP2C9 (Homo sapiens)
Sequence (P11712 whole entry): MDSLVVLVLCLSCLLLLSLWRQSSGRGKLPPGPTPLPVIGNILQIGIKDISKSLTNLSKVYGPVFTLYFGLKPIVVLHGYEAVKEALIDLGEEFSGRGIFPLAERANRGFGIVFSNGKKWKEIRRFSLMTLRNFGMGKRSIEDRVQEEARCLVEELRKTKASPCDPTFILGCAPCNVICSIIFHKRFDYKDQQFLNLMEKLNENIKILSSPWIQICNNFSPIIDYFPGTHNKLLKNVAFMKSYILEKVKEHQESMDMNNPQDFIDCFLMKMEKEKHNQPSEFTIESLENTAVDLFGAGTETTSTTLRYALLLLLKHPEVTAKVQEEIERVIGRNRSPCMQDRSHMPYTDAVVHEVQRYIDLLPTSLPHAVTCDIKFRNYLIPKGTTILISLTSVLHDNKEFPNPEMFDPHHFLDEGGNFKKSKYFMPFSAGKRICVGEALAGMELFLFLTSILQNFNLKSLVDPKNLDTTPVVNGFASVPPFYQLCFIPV
Assay: Inhibition of CYP2C9 (unknown origin) at 10 uM
Assay type: ADME
Each record gets a class by inhibition at 10 µM: low (below 20%), intermediate (20% to below 30%), high (30% or more)

Example cases with answers are listed next.
Cl.c1cncc(OC[C@H]2CNCCN2c2nc3ncccc3o2)c1 : intermediate
Fc1cccc2sc(N3CCNCC3COc3cccnc3)nc12 (racemic) : intermediate
Fc1cc(F)c2nc(N3CCNCC3COc3cccnc3)sc2c1 (racemic) : intermediate

Exercise: read the entry COc1ccc2nc(N3CCNC[C@@H]3COc3cccnc3)sc2c1 and state which class it falls under.
high

Exercise: read the entry O=C(c1ccccc1)c1ccc(NC(=O)N2CCNCC2COc2cccnc2)cc1 (racemic) and state which class it falls under.
high

Exercise: read the entry COc1ccc(NC(=O)N2CCNCC2COc2cccnc2)cc1Cl (racemic) and state which class it falls under.
low

Exercise: read the entry Cc1cc(NC(=O)N2CCNCC2COc2cccnc2)ccc1Br (racemic) and state which class it falls under.
intermediate

Exercise: read the entry COc1ccc(NC(=O)N2CCNCC2COc2cccnc2)cc1 (racemic) and state which class it falls under.
low

Exercise: read the entry O=C(Nc1ccc(Br)cc1F)N1CCNCC1COc1cccnc1 (racemic) and state which class it falls under.
low

###

Measured inhibition of individual entries
Biological target: 5-hydroxytryptamine receptor 3A (Homo sapiens) (UniProt P46098)
Sequence (P46098 whole entry): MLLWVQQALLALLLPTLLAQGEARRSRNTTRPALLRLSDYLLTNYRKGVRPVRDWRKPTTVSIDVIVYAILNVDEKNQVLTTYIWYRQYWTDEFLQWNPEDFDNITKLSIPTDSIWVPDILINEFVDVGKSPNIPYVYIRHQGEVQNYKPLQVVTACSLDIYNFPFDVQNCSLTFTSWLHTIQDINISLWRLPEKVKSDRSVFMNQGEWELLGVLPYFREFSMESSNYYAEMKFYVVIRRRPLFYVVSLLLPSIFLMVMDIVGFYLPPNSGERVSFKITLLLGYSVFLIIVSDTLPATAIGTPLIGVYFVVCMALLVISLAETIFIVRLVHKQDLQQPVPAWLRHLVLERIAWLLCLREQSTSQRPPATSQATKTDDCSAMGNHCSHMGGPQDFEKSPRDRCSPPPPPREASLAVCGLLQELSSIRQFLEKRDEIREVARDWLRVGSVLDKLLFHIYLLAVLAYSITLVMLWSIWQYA
Test: Inhibition of 5-HT3 receptor (unknown origin) at 10 uM
Numeric only. Scale: %

COc1ccc(NC(=O)N2CCNCC2COc2cccnc2)cc1Cl (racemic) : 40

Field request: inhibition | item: Cl.c1cncc(OC[C@H]2CNCCN2c2nc3ncccc3o2)c1
43

Field request: inhibition | item: Cc1cc(NC(=O)N2CCNCC2COc2cccnc2)ccc1Br (racemic)
80

###

Biological target: CYP2C19 (Homo sapiens)
Sequence (P33261 whole entry): as the sequence (P33261 whole entry) above
Assay: Inhibition of CYP2C19 (unknown origin) at 10 uM
Format: ADME
Decision: inhibition at 10 µM >= 50% yields MET, all other cases yield NOT MET.

Reported inhibition at 10 µM reaches at least 50% for Cl.c1cncc(OC[C@H]2CNCCN2c2nc3ncccc3o2)c1 ?
NOT MET

Reported inhibition at 10 µM reaches at least 50% for Fc1cccc2sc(N3CCNCC3COc3cccnc3)nc12 (racemic) ?
MET

Reported inhibition at 10 µM reaches at least 50% for c1cncc(OCC2CNCCN2c2nc3ccccc3o2)c1 (racemic) ?
NOT MET

###

Measured Cmax of individual entries
Assay: Cmax in mouse at 5 mg/kg, po
Type: ADME, organism-based
Design: dose 5 mg/kg, route oral
Details: in vivo

Cl.c1cncc(OC[C@H]2CNCCN2c2nc3ncccc3o2)c1 : 2530 nM

Field request: Cmax | item: COc1ccc(NC(=O)N2CCNC[C@@H]2COc2cccnc2)cc1.Cl
950 nM

###

Measured inhibition at 10 µM of individual entries
Target: CYP1A2 (Homo sapiens, UniProt P05177)
Sequence (P05177 whole entry): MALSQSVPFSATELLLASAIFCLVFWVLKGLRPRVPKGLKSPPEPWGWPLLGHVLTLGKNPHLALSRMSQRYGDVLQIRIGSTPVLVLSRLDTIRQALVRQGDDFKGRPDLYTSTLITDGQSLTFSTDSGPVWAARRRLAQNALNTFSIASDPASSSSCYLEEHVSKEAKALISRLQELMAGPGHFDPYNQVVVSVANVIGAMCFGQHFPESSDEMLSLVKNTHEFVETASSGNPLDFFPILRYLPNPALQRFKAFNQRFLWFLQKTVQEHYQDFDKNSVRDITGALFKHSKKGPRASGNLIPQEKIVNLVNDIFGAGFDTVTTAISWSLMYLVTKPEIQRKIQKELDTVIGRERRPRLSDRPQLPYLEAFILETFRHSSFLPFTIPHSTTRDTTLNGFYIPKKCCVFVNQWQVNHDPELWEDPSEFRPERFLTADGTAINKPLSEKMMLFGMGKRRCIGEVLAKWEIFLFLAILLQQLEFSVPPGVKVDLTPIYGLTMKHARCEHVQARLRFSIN
Experiment: Inhibition of CYP1A2 (unknown origin) at 10 uM
Type: ADME
Numeric only. Scale: %

As a guide, the following entries are already answered.
COc1ccc(NC(=O)N2CCNCC2COc2cccnc2)cc1Cl (racemic) : 20
O=C(Nc1ccc(Br)cc1F)N1CCNCC1COc1cccnc1 (racemic) : 13

Field request: inhibition at 10 µM | item: Fc1cc(F)c2nc(N3CCNCC3COc3cccnc3)sc2c1 (racemic)
67

Field request: inhibition at 10 µM | item: COc1ccc(NC(=O)N2CCNCC2COc2cccnc2)cc1 (racemic)
11

###

Target: Neuronal acetylcholine receptor subunit alpha-7 (Homo sapiens)
Sequence (P36544 whole entry): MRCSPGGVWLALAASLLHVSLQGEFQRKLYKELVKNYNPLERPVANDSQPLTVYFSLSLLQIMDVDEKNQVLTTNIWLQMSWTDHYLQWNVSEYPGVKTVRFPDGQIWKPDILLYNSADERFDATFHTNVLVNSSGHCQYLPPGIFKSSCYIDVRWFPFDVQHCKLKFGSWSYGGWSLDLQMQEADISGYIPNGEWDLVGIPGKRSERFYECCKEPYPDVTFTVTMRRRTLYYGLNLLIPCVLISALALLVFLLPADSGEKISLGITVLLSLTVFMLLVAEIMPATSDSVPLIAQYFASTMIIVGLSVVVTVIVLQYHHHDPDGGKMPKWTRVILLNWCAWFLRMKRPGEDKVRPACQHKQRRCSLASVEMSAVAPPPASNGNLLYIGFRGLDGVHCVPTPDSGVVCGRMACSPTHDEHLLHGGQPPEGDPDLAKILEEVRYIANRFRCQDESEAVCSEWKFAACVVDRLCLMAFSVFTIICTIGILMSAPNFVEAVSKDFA
Test: Agonist activity at human alpha7 nAChR expressed in Xenopus oocytes by voltage clamp method
Assay type: cell-based
Endpoint: EC50 (nM)
Numeric only. Scale: nM

Field request: EC50 | item: Cl.c1cncc(OC[C@H]2CNCCN2c2nc3ncccc3o2)c1
200

###

Assay: Oral bioavailability in mouse at 5 mg/kg
Type: ADME, organism-based
Conditions: in vivo
Endpoint: bioavailability (%)
Numeric only. Scale: %

Cl.c1cncc(OC[C@H]2CNCCN2c2nc3ncccc3o2)c1 : 50

Note: attention shifts to another entry.
Field request: bioavailability | item: COc1ccc(NC(=O)N2CCNC[C@@H]2COc2cccnc2)cc1.Cl
76

###

Target: Neuronal acetylcholine receptor; alpha4/beta2 (Homo sapiens, UniProt P17787+P43681)
Sequence (P17787 whole entry): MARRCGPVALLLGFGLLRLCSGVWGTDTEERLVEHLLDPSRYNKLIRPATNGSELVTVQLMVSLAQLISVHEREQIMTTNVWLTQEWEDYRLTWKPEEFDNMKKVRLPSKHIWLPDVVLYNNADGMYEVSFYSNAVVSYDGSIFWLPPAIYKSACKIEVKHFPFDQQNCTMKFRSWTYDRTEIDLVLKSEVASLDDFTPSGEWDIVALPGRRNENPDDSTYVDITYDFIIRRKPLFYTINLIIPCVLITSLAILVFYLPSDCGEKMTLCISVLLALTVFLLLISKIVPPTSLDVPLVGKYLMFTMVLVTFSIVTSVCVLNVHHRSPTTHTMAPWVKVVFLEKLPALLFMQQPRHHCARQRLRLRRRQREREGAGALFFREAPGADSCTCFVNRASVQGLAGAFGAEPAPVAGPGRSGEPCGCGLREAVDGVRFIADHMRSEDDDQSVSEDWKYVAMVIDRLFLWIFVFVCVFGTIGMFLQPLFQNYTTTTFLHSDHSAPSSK
Sequence (P43681 whole entry): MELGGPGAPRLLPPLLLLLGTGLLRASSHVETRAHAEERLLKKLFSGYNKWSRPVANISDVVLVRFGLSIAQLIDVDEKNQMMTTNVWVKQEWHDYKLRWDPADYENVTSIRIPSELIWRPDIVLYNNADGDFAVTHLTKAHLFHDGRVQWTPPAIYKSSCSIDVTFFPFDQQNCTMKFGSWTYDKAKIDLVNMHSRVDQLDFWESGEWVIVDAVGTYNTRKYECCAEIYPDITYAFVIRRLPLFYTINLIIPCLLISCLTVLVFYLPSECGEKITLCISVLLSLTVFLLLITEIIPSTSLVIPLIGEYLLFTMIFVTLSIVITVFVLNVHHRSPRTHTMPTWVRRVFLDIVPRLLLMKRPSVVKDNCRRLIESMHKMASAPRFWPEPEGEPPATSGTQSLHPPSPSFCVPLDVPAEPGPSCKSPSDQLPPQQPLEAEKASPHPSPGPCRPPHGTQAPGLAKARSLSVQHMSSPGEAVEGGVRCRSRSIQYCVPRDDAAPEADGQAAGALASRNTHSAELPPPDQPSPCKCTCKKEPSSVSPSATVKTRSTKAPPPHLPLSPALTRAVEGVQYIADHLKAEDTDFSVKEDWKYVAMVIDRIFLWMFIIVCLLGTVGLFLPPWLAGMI
Assay: Agonist activity at alpha4beta2 nAChR (unknown origin)
Endpoint: Ki
The reply should consist of the numeric value with the unit placed after it.

Write down the reported Ki of c1cncc(OC[C@@H]2CCN2)c1 , test system: Neuronal acetylcholine receptor; alpha4/beta2 (Homo sapiens, UniProt P17787+P43681).
0.052 nM

###

Molecular target: Cytochrome P450 2D6 (Homo sapiens)
Sequence (P10635 whole entry): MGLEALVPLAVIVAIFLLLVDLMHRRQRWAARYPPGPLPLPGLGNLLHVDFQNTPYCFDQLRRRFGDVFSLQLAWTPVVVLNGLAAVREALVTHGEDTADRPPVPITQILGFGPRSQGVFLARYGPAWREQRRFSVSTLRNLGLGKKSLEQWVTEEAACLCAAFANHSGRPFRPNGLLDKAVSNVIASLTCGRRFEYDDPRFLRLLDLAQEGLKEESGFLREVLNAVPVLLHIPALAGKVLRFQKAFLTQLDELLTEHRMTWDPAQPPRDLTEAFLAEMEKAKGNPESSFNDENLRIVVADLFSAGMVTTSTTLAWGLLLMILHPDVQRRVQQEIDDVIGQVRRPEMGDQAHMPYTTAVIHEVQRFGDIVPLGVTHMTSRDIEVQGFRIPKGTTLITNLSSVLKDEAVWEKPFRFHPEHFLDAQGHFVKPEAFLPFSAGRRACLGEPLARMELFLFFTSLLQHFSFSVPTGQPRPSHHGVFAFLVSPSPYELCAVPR
Endpoint: IC50

Write down the reported IC50 of COc1ccc(NC(=O)N2CCNC[C@@H]2COc2cccnc2)cc1.Cl , test system: Cytochrome P450 2D6 (Homo sapiens).
> 100 µM

###

Experiment: Clearance in mouse at 1 mg/kg, iv
Assay type: ADME, organism-based
Set-up: dose 1 mg/kg, route intravenous
Settings: in vivo
Endpoint: clearance (mL/min/kg)
Numeric only. Scale: mL/min/kg

Cl.c1cncc(OC[C@H]2CNCCN2c2nc3ncccc3o2)c1 : 72

Note: attention shifts to another entry.
Field request: clearance | item: COc1ccc(NC(=O)N2CCNC[C@@H]2COc2cccnc2)cc1.Cl
103

###

Biological target: Cytochrome P450 2C9 (Homo sapiens)
Endpoint: IC50

Field request: IC50 | item: COc1ccc(NC(=O)N2CCNC[C@@H]2COc2cccnc2)cc1.Cl
> 100 µM

###

Biological target: Neuronal acetylcholine receptor; alpha4/beta2 (Homo sapiens, UniProt P17787+P43681)
Assay: Inhibition of human alpha4beta2 nAChR at 10 uM by binding assay
Measured inhibition of individual entries
Numeric only. Scale: %

As a guide, the following entries are already answered.
COc1ccc2nc(N3CCNC[C@@H]3COc3cccnc3)sc2c1 : 83
COc1ccc(NC(=O)N2CCNCC2COc2cccnc2)cc1 (racemic) : 33
O=C(Nc1ccc(Br)cc1F)N1CCNCC1COc1cccnc1 (racemic) : 30
Fc1cc(F)c2nc(N3CCNCC3COc3cccnc3)sc2c1 (racemic) : 45
Fc1cccc2sc(N3CCNCC3COc3cccnc3)nc12 (racemic) : 53

Note: attention shifts to another entry.
Field request: inhibition | item: Cc1cc(NC(=O)N2CCNCC2COc2cccnc2)ccc1Br (racemic)
15
